B1: EPB41L3 (parent)
chain: SMQCKVILLDGSEYTCDVEKRSRG

Variants of: B1
experimentDescription: protein stability index of a GFP-peptide fusion (GPS, HEK-293T) (PSI 1-6); higher = more stable;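 also: lentivirally expressed fusions sorted by FACS into six bins by GFP to DsRed ratio, PSI derived from sequencing read proportions per bin multiplied by bin number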
studyConditions: c terminus: a fixed tail appended
// reported protein stability index for each item listed
endpointName: protein stability index

itemSequence: SMQCAVILLDGSEYTCDVEKRSRG [K5A]
endpointName: protein stability index
observedMeasurement: 3.27
//
itemSequence: SMQCKVILPDGSEYTCDVEKRSRG [L9P]
endpointName: protein stability index
observedMeasurement: 3.71
//
itemSequence: SMQCKVILLDGSEYICDVEKRSRG [T15I]
endpointName: protein stability index
observedMeasurement: 2.67
//
itemSequence: SMQCKVIQLDGSEYTCDVEKRSRG [L8Q]
endpointName: protein stability index
observedMeasurement: 4.25
//
itemSequence: SMQCKVILLDASEYTCDVEKRSRG [G11A]
endpointName: protein stability index
observedMeasurement: 2.58
//
itemSequence: SMQCWVILLDGSEYTCDVEKRSRG [K5W]
endpointName: protein stability index
observedMeasurement: 2.59
//
itemSequence: SMGCKVILLDGSEYTCDVEKRSRG [Q3G]
endpointName: protein stability index
observedMeasurement: 2.38
//
itemSequence: SMQCKVILLDGSEPTCDVEKRSRG [Y14P]
endpointName: protein stability index
observedMeasurement: 3.66
//
itemSequence: SMQCKVILLDGSEYTCDVEKRSRP [G24P]
endpointName: protein stability index
observedMeasurement: 2.47
//
itemSequence: SMQCKVILLDGSPYTCDVEKRSRG [E13P]
endpointName: protein stability index
observedMeasurement: 3.48
//
itemSequence: SMQCKVILLDGSESTCDVEKRSRG [Y14S]
endpointName: protein stability index
observedMeasurement: 4.43
//
itemSequence: SMQCKVILLDGSEYTCSVEKRSRG [D17S]
endpointName: protein stability index
observedMeasurement: 2.21
//
itemSequence: FMQCKVILLDGSEYTCDVEKRSRG [S1F]
endpointName: protein stability index
observedMeasurement: 2
//
itemSequence: SMQCKVIELDGSEYTCDVEKRSRG [L8E]
endpointName: protein stability index
observedMeasurement: 4.05
//
itemSequence: SMQCKVILLLGSEYTCDVEKRSRG [D10L]
endpointName: protein stability index
observedMeasurement: 1.67
//
itemSequence: SMQCKVILLDGSEYSCDVEKRSRG [T15S]
endpointName: protein stability index
observedMeasurement: 3.03
//
itemSequence: SMQCKVILLDGNEYTCDVEKRSRG [S12N]
endpointName: protein stability index
observedMeasurement: 2.91
//
itemSequence: SMQCKLILLDGSEYTCDVEKRSRG [V6L]
endpointName: protein stability index
observedMeasurement: 2.44
//
itemSequence: SMQCKVILLDGSEYTCDVEKLSRG [R21L]
endpointName: protein stability index
observedMeasurement: 2.31
//
itemSequence: SRQCKVILLDGSEYTCDVEKRSRG [M2R]
endpointName: protein stability index
observedMeasurement: 2.72
//
itemSequence: SMQCKVILLDGSEYTCDVEKRSHG [R23H]
endpointName: protein stability index
observedMeasurement: 3.31
//
itemSequence: SMQCSVILLDGSEYTCDVEKRSRG [K5S]
endpointName: protein stability index
observedMeasurement: 3.04
//
itemSequence: SMQCHVILLDGSEYTCDVEKRSRG [K5H]
endpointName: protein stability index
observedMeasurement: 2.39
//
itemSequence: SMQCKIILLDGSEYTCDVEKRSRG [V6I]
endpointName: protein stability index
observedMeasurement: 2.2
//
itemSequence: SMQCKVILLDGSEYTCDVEKRARG [S22A]
endpointName: protein stability index
observedMeasurement: 2.29
//
itemSequence: SMQCKVILLDGSEATCDVEKRSRG [Y14A]
endpointName: protein stability index
observedMeasurement: 3.7
//
itemSequence: STQCKVILLDGSEYTCDVEKRSRG [M2T]
endpointName: protein stability index
observedMeasurement: 3.53
//
itemSequence: SMYCKVILLDGSEYTCDVEKRSRG [Q3Y]
endpointName: protein stability index
observedMeasurement: 2.07
//
itemSequence: SMQCKVILLDGSETTCDVEKRSRG [Y14T]
endpointName: protein stability index
observedMeasurement: 2.81
//
itemSequence: SMQCKVILLDGSEYTCDVMKRSRG [E19M]
endpointName: protein stability index
observedMeasurement: 2.14
//
itemSequence: SMQCKVILLDWSEYTCDVEKRSRG [G11W]
endpointName: protein stability index
observedMeasurement: 1.68
//
itemSequence: SMQCKVILLDGSLYTCDVEKRSRG [E13L]
endpointName: protein stability index
observedMeasurement: 2.7
//
itemSequence: SMQCKVILLDGSEYHCDVEKRSRG [T15H]
endpointName: protein stability index
observedMeasurement: 1.98
//
itemSequence: SVQCKVILLDGSEYTCDVEKRSRG [M2V]
endpointName: protein stability index
observedMeasurement: 2.6
//
itemSequence: SMQCKVILLDGSEYTCDVEKRSQG [R23Q]
endpointName: protein stability index
observedMeasurement: 2.87
//
itemSequence: SMQCKVILLDGSEYTCDVEKRSRW [G24W]
endpointName: protein stability index
observedMeasurement: 2.88
//
itemSequence: SMQCKVILSDGSEYTCDVEKRSRG [L9S]
endpointName: protein stability index
observedMeasurement: 2.85
//
itemSequence: SMQCKVILLDGSERTCDVEKRSRG [Y14R]
endpointName: protein stability index
observedMeasurement: 3.66
//
itemSequence: SMQCDVILLDGSEYTCDVEKRSRG [K5D]
endpointName: protein stability index
observedMeasurement: 3.96
//
itemSequence: SMQDKVILLDGSEYTCDVEKRSRG [C4D]
endpointName: protein stability index
observedMeasurement: 4.23
//
itemSequence: SMQCKVILLDGSEYTCDVEKRCRG [S22C]
endpointName: protein stability index
observedMeasurement: 2.09
//
itemSequence: SMQCKNILLDGSEYTCDVEKRSRG [V6N]
endpointName: protein stability index
observedMeasurement: 4.5
//
itemSequence: SMQCKVILLDGEEYTCDVEKRSRG [S12E]
endpointName: protein stability index
observedMeasurement: 4.38
//
itemSequence: IMQCKVILLDGSEYTCDVEKRSRG [S1I]
endpointName: protein stability index
observedMeasurement: 1.93
//
itemSequence: SMQCKVILLDGSVYTCDVEKRSRG [E13V]
endpointName: protein stability index
observedMeasurement: 1.86
//
itemSequence: SMQCKVIALDGSEYTCDVEKRSRG [L8A]
endpointName: protein stability index
observedMeasurement: 3.31
//
itemSequence: MMQCKVILLDGSEYTCDVEKRSRG [S1M]
endpointName: protein stability index
observedMeasurement: 3.46
//
itemSequence: SMQCKVILLDNSEYTCDVEKRSRG [G11N]
endpointName: protein stability index
observedMeasurement: 3.26
//
itemSequence: SMQCYVILLDGSEYTCDVEKRSRG [K5Y]
endpointName: protein stability index
observedMeasurement: 3.16
//
itemSequence: SMQCKTILLDGSEYTCDVEKRSRG [V6T]
endpointName: protein stability index
observedMeasurement: 3.71
//
itemSequence: SMQCKVILLDGSEYTCPVEKRSRG [D17P]
endpointName: protein stability index
observedMeasurement: 3.08
//
itemSequence: SMQCKVILLDGSEYTCDVEKRTRG [S22T]
endpointName: protein stability index
observedMeasurement: 3.63
//
itemSequence: SMQCKVILLDGSEYTCDVTKRSRG [E19T]
endpointName: protein stability index
observedMeasurement: 1.54
//
itemSequence: SMQCKVILLDGSEYTCDVEKRSRK [G24K]
endpointName: protein stability index
observedMeasurement: 2.99
//
itemSequence: DMQCKVILLDGSEYTCDVEKRSRG [S1D]
endpointName: protein stability index
observedMeasurement: 3.27
//
itemSequence: SMQCKVILLDGSEGTCDVEKRSRG [Y14G]
endpointName: protein stability index
observedMeasurement: 3.69
//
itemSequence: SMQCKVILLDGSEYTGDVEKRSRG [C16G]
endpointName: protein stability index
observedMeasurement: 3.19
//
itemSequence: SMQCKVILLDGSEYTCDVEKYSRG [R21Y]
endpointName: protein stability index
observedMeasurement: 2.09
//
itemSequence: SMQCKVILLDGSEYTCDHEKRSRG [V18H]
endpointName: protein stability index
observedMeasurement: 2.72
//
itemSequence: SMQCKVILLDGSEYTCDVEARSRG [K20A]
endpointName: protein stability index
observedMeasurement: 2.06
//
itemSequence: SMQCKVILLDGSEYTCDVEKGSRG [R21G]
endpointName: protein stability index
observedMeasurement: 2.73
//
itemSequence: SMQCKVILLDGSYYTCDVEKRSRG [E13Y]
endpointName: protein stability index
observedMeasurement: 1.9
//
itemSequence: SMQEKVILLDGSEYTCDVEKRSRG [C4E]
endpointName: protein stability index
observedMeasurement: 4.48
//
itemSequence: SMQCKVILLDGSEYTCDVEPRSRG [K20P]
endpointName: protein stability index
observedMeasurement: 2.49
//
itemSequence: SMQCKVILLDGSTYTCDVEKRSRG [E13T]
endpointName: protein stability index
observedMeasurement: 2.33
//
itemSequence: SMQCKVILLDGSEYTCDVEKRSRN [G24N]
endpointName: protein stability index
observedMeasurement: 3.27
//
itemSequence: SMHCKVILLDGSEYTCDVEKRSRG [Q3H]
endpointName: protein stability index
observedMeasurement: 2.83
//
itemSequence: SMQCKVILLDGSEYTLDVEKRSRG [C16L]
endpointName: protein stability index
observedMeasurement: 2.23
//
itemSequence: SMQCKVILLEGSEYTCDVEKRSRG [D10E]
endpointName: protein stability index
observedMeasurement: 2.24
//
itemSequence: SMKCKVILLDGSEYTCDVEKRSRG [Q3K]
endpointName: protein stability index
observedMeasurement: 2.68
//
itemSequence: SMQCKVILLDGPEYTCDVEKRSRG [S12P]
endpointName: protein stability index
observedMeasurement: 2.4
//
itemSequence: SMQCKVITLDGSEYTCDVEKRSRG [L8T]
endpointName: protein stability index
observedMeasurement: 2.67
//
itemSequence: SMQCKVILLDGAEYTCDVEKRSRG [S12A]
endpointName: protein stability index
observedMeasurement: 3.39
//
itemSequence: SMQCKVILLDGSEYTCDVEKRSRD [G24D]
endpointName: protein stability index
observedMeasurement: 2.37
//
itemSequence: SMQCKVILLDGSEYTCNVEKRSRG [D17N]
endpointName: protein stability index
observedMeasurement: 2.36
//
itemSequence: SMQVKVILLDGSEYTCDVEKRSRG [C4V]
endpointName: protein stability index
observedMeasurement: 3.17
//
itemSequence: SMQCKVILLDGSEYTCDVETRSRG [K20T]
endpointName: protein stability index
observedMeasurement: 3.66
//
itemSequence: SMWCKVILLDGSEYTCDVEKRSRG [Q3W]
endpointName: protein stability index
observedMeasurement: 1.19
//
itemSequence: SMQCKVILLYGSEYTCDVEKRSRG [D10Y]
endpointName: protein stability index
observedMeasurement: 1.77
//
itemSequence: SMQCKVILLDGSKYTCDVEKRSRG [E13K]
endpointName: protein stability index
observedMeasurement: 2.41
//
itemSequence: SMQCKVILLDGSGYTCDVEKRSRG [E13G]
endpointName: protein stability index
observedMeasurement: 2.79
//
itemSequence: SMQCKVILLDGSWYTCDVEKRSRG [E13W]
endpointName: protein stability index
observedMeasurement: 2.05
//
itemSequence: SMQCKVILLDGSEYTCDVFKRSRG [E19F]
endpointName: protein stability index
observedMeasurement: 1.19
//
itemSequence: SMQCKVILLDGSEYTCDVIKRSRG [E19I]
endpointName: protein stability index
observedMeasurement: 1.93
//
itemSequence: SMACKVILLDGSEYTCDVEKRSRG [Q3A]
endpointName: protein stability index
observedMeasurement: 2.9
//
itemSequence: SMQCKVILLDGSEYTCDVEKRSDG [R23D]
endpointName: protein stability index
observedMeasurement: 3.51
//
itemSequence: GMQCKVILLDGSEYTCDVEKRSRG [S1G]
endpointName: protein stability index
observedMeasurement: 2.37
//
itemSequence: SMQCKVILLDGSEYTCDVEKMSRG [R21M]
endpointName: protein stability index
observedMeasurement: 1.88
//
itemSequence: SMDCKVILLDGSEYTCDVEKRSRG [Q3D]
endpointName: protein stability index
observedMeasurement: 3.75
//
itemSequence: SMQCKVILLDGSEYTCDVEKRWRG [S22W]
endpointName: protein stability index
observedMeasurement: 2.11
//
itemSequence: SMQCKVILLDGTEYTCDVEKRSRG [S12T]
endpointName: protein stability index
observedMeasurement: 2.16
